compounds and their reported composite z-score
# System: Plasmodium falciparum Sir2 (PF13_0152, Sir2A)
# measurement-protocol: pfSir2 binders on small-molecule microarrays, primary screen, biochemical, small-molecule microarray, 635 nm fluorescence (AID 1098);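 also: score merges spot fluorescence intensity with its signal-to-noise ratio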
# condition-details: small-molecule microarray binding, fluorescence 635 nm; higher = more signal
Response field accepts a number only; no unit should be typed.

Challenge: Any idea what its composite z-score is? The compound is COCCOC(=O)N1C(=O)[C@@]2(c3cc(C#Cc4ccc(OC)cc4)ccc31)[C@H](C(=O)NC[C@H](O)c1ccccc1)[C@H]1C(=O)O[C@H](c3ccccc3)[C@H](c3ccccc3)N1[C@@H]2c1ccc(OCCO)cc1
Response given: 1.02

Challenge: Check COCCCNC(=O)[C@@]1(Sc2ccc(C)cc2)CC(=O)N(C(C)C)[C@@H]1c1ccc(CO)cc1I too.
Response given: 1.03

Challenge: COCCOC(=O)N1C(=O)[C@@]2(c3cc(C#Cc4ccc(OC)cc4)ccc31)[C@H](c1ccc(OCCO)cc1)N1[C@H](c3ccccc3)[C@H](c3ccccc3)OC(=O)[C@H]1[C@@H]2C(=O)Nc1nc2ccccc2s1 , same question.
Response given: 0.181

Challenge: Same thing, different compound: COc1ccc([Si](C)(C)[C@@H]2[C@@H](CCn3cc([C@H](O)c4ccccc4)nn3)O[C@]3(C(=O)N(c4ccccc4)c4ccccc43)[C@H]2C)cc1
Response given: 0.548

Challenge: Continue with CN(C)CCCCNC(=O)[C@H]1C[C@H]2C(=O)N[C@@H](CCCC[N+](C)(C)C)C(=O)N2[C@H]1c1ccc(O)cc1
Response given: 1.26

Challenge: Input COC(=O)[C@@]1(Cc2ccccc2CN=[N+]=[N-])N=C(c2ccc(OCCCO)cc2)O[C@H]1c1ccccc1CN=[N+]=[N-]
Response given: 1.32
